Attribution: patent US20160237071A1

Molecular target: Human T-type calcium channel (Cav 3.2) (Homo sapiens, UniProt O95180)
Construct: Edward Perez-Reyes, University of Virginia, USA
Sequence (O95180 whole entry): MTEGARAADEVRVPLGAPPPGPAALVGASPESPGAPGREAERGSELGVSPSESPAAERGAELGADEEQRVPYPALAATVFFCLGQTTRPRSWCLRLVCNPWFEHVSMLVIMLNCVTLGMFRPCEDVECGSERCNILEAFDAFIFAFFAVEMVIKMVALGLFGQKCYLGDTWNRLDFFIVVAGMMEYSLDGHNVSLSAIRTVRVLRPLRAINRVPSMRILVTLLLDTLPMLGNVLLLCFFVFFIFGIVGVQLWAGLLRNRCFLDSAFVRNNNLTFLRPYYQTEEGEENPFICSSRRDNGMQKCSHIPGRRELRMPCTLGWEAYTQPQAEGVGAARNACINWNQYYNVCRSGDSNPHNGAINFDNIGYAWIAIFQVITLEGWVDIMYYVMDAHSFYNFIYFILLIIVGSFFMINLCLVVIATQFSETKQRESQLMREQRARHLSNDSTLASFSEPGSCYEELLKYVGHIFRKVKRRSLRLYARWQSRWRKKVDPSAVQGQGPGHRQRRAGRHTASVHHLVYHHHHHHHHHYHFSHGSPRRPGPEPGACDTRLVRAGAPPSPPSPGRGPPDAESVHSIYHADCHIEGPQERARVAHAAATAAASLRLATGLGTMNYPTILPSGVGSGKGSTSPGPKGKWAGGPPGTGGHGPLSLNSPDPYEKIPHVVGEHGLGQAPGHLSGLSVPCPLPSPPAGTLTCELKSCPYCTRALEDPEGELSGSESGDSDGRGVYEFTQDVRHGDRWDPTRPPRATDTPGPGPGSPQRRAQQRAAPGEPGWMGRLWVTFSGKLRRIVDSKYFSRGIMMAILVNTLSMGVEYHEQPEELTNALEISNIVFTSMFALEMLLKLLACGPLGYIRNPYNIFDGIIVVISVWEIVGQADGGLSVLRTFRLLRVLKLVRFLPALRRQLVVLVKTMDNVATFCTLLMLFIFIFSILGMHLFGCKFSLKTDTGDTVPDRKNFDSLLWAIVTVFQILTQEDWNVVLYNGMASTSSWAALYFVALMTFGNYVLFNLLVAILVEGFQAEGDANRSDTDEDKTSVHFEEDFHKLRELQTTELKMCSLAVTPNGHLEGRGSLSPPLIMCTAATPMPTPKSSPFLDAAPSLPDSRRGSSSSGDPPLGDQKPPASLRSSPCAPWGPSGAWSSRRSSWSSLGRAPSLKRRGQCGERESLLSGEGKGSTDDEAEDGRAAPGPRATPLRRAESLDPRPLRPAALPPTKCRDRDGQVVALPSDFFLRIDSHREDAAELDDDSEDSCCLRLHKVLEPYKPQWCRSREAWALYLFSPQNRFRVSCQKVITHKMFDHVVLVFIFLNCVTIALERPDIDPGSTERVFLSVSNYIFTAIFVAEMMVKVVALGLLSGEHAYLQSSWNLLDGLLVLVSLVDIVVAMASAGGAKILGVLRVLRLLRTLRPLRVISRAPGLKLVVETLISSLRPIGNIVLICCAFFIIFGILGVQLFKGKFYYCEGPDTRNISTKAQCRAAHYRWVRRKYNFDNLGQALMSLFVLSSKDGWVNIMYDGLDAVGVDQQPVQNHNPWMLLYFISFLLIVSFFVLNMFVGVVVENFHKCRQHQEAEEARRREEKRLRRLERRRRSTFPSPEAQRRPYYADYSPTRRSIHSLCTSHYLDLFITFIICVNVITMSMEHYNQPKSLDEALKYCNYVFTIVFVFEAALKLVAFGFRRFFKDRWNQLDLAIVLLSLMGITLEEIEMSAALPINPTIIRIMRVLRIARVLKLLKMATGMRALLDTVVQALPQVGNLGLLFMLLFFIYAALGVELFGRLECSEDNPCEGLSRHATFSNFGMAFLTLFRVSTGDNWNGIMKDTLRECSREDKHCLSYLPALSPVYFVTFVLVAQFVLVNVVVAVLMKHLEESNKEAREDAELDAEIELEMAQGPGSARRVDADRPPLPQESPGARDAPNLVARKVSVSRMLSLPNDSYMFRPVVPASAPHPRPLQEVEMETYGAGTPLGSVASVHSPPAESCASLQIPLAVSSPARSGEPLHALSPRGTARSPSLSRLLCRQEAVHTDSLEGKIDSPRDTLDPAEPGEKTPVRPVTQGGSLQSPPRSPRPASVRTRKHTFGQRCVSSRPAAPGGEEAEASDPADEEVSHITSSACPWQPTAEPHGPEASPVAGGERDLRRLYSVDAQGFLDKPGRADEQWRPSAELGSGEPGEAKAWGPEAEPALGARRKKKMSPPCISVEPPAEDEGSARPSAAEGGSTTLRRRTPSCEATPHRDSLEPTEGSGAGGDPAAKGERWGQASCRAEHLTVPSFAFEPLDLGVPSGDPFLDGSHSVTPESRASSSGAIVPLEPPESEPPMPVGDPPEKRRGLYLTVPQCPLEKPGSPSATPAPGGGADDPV
Experiment: Calcium influx inhibition assay
Conditions: T-type calcium channel inhibition concentration; Cav 3.2 expressing HEK293 cells, FLIPR Calcium 4 fluorescence; read-out: C50
Procedure: Human T-type calcium channel (Cav 3.2) expressing HEK293 cells were obtained from Prof. Edward Perez-Reyes, University of Virginia, USA. The calcium-sensitive fluorescent dye used was FLIPR Calcium 4 Assay Kit (Molecular Devices). To a black 96-well plate with a clear bottom coated with type I collagen, the human T-type calcium channel (Cav 3.2) expressing HEK293 cells were seeded and cultured overnight, and the culture medium was removed. […]
pIC50: −log10 of the molar value.
Parameter Measured: pIC50

>>> observed_value("Cc1nc(N2CCc3cc(OCC(F)(F)F)ccc3C2)nc(=O)n1Cc1ccc(C(F)(F)F)s1 [compound 40]")
6.60
>>> observed_value("O=c1nc(N2CCc3cc(OCC(F)(F)F)ccc3C2)ncn1Cc1ccc(C(F)(F)F)s1 [compound 13]")
7.26
>>> observed_value("Cc1nc(N2CCc3cc(Cl)ncc3C2)nc(=O)n1Cc1ccc(C(F)(F)F)s1 [compound 16]")
6.19
>>> observed_value("COc1ccc2c(c1)C(F)CN(c1nc(C)n(Cc3ccc(C(F)(F)F)s3)c(=O)n1)C2 (stereo not shown) [compound 35]")
7.29

###

Biological target: Human T-type calcium channel (Cav 3.2) (Homo sapiens, UniProt O95180)
Construct: Edward Perez-Reyes, University of Virginia, USA
Experiment: Calcium influx inhibition assay
Conditions: T-type calcium channel inhibition concentration; Cav 3.2 expressing HEK293 cells, FLIPR Calcium 4 fluorescence; read-out: C50
Protocol: Human T-type calcium channel (Cav 3.2) expressing HEK293 cells were obtained from Prof. Edward Perez-Reyes, University of Virginia, USA. The calcium-sensitive fluorescent dye used was FLIPR Calcium 4 Assay Kit (Molecular Devices). To a black 96-well plate with a clear bottom coated with type I collagen, the human T-type calcium channel (Cav 3.2) expressing HEK293 cells were seeded and cultured overnight, and the culture medium was removed. […]
IC50 for assorted molecules
Parameter Measured: IC50 (nM)

>>> observed_value("Cc1nc(N2CCc3nc(Cl)ccc3C2)nc(=O)n1Cc1ccc(C(F)(F)F)s1")
350
>>> observed_value("COc1ccc2c(c1)[C@H](O)CN(c1nc(C)n(Cc3ccc(C(F)(F)F)s3)c(=O)n1)C2")
130
>>> observed_value("COc1nc2c(s1)CN(c1nc(C)n(Cc3ccc(C(F)(F)F)s3)c(=O)n1)CC2")
360
>>> observed_value("Cc1nc(N2CCc3cc(OC(F)F)ccc3C2)nc(=O)n1Cc1ccc(C(F)(F)F)s1")
45
>>> observed_value("Cc1nc(N2CCc3ccc(C(F)(F)F)cc3C2)nc(=O)n1Cc1ccc(C(F)(F)F)s1")
320
>>> observed_value("COc1ccc2c(c1)C(O)CN(c1nc(C)n(Cc3ccc(F)cc3)c(=O)n1)C2 (centres unmarked)")
3000
>>> observed_value("Cc1nc(N2Cc3ccc(OCC(C)C)cc3C(O)C2)nc(=O)n1Cc1ccc(C(F)(F)F)s1 (centres unmarked)")
75
>>> observed_value("Cc1nc(N2CCc3c([nH]c4cc(F)ccc34)C2)nc(=O)n1Cc1cnc(C(F)(F)F)s1")
52
>>> observed_value("Cc1nc(N2Cc3ccc(O)cc3C(O)C2)nc(=O)n1Cc1ccc(C(F)(F)F)s1 (centres unmarked)")
290
>>> observed_value("Cc1nc(N2Cc3ccc(OC(C)C)cc3C(O)C2)nc(=O)n1Cc1ccc(C(F)(F)F)s1 (centres unmarked)")
38
>>> observed_value("Cc1nc(N2CCc3ccccc32)nc(=O)n1Cc1ccc(C(F)(F)F)s1")
750
>>> observed_value("COc1ccc2c(c1)/C(=N/O)CN(c1nc(C)n(Cc3ccc(C(F)(F)F)s3)c(=O)n1)C2")
130
>>> observed_value("Cc1nc(N2CCc3cc(F)ccc3C2)nc(=O)n1Cc1ccc(C(F)(F)F)s1")
290
>>> observed_value("CCOC(=O)c1cc2c(s1)CCN(c1nc(C)n(Cc3ccc(C(F)(F)F)s3)c(=O)n1)C2")
340
>>> observed_value("Cc1cc2c(s1)CCN(c1nc(C)n(Cc3ccc(C(F)(F)F)s3)c(=O)n1)C2")
260
>>> observed_value("COc1ccc2c(c1)C(O)CN(c1nc(C)n(Cc3ccc(C(F)(F)F)s3)c(=O)n1)C2 (centres unmarked)")
20
>>> observed_value("COc1ccc2c(c1)C(O)CN(c1ncn(Cc3ccc(C(F)(F)F)s3)c(=O)n1)C2 (centres unmarked)")
95

###

target: Human T-type calcium channel (Cav 3.2) (Homo sapiens, UniProt O95180); construct: Edward Perez-Reyes, University of Virginia, USA; assay: Calcium influx inhibition assay; conditions: T-type calcium channel inhibition concentration; Cav 3.2 expressing HEK293 cells, FLIPR Calcium 4 fluorescence; read-out: C50
IC50 for assorted compounds
Parameter Measured: IC50 (µM)

>>> observed_value("N#Cc1ccc2c(c1)CN(c1ncn(Cc3ccc(C(F)(F)F)s3)c(=O)n1)CC2 [compound 6]")
1.8
>>> observed_value("COc1ccc2c(c1)C(O)CN(c1nc(C)n(Cc3cnc(C(F)(F)F)s3)c(=O)n1)C2 (stereo not shown) [compound 25]")
0.45
>>> observed_value("COc1cc2c(cc1OC)CN(c1ncn(Cc3ccc(C(F)(F)F)s3)c(=O)n1)CC2 [compound 2]")
0.54
>>> observed_value("Cc1nc(N2Cc3ccc(OCC4CC4)cc3C(O)C2)nc(=O)n1Cc1ccc(C(F)(F)F)s1 (stereo not shown) [compound 47]")
0.052
>>> observed_value("COc1ccc2c(c1)C(O)CN(c1nc(C)n(Cc3ccc(OS(=O)(=O)C(F)(F)F)nc3)c(=O)n1)C2 (stereo not shown) [compound 10]")
0.32
>>> observed_value("Cc1nc(N2Cc3ccc(OCC(F)(F)F)cc3C(O)C2)nc(=O)n1Cc1ccc(C(F)(F)F)s1 (stereo not shown) [compound 15]")
0.01
>>> observed_value("COc1ccc2c(c1)CN(c1nc(C)n(Cc3ccc(C(F)(F)F)s3)c(=O)n1)CC2O (stereo not shown) [8b]")
0.79
>>> observed_value("Cc1nc(N2CCc3ccccc3C2)nc(=O)n1Cc1ccc(C(F)(F)F)s1 [compound 44]")
0.32
>>> observed_value("Cc1nc(N2CCc3c(Cl)ccc(Cl)c3C2)nc(=O)n1Cc1ccc(C(F)(F)F)s1 [compound 28]")
0.32
>>> observed_value("COc1ccc2c(c1)[C@@H](O)CN(c1nc(C)n(Cc3ccc(C(F)(F)F)s3)c(=O)n1)C2 [9a]")
0.0049
>>> observed_value("Cc1nc(N2CCc3sc(CO)cc3C2)nc(=O)n1Cc1ccc(C(F)(F)F)s1 [compound 20]")
0.4
>>> observed_value("COc1ccc2c(c1)C(=O)CN(c1nc(C)n(Cc3ccc(C(F)(F)F)s3)c(=O)n1)C2 [compound 36]")
0.52
>>> observed_value("Cc1nc(N2CCc3nc(C4CC4)ccc3C2)nc(=O)n1Cc1ccc(C(F)(F)F)s1 [compound 31]")
0.24
>>> observed_value("Cc1nc(N2CCc3cc(OCC(F)(F)F)ccc3C2)nc(=O)n1Cc1cnc(C(F)(F)F)s1 [compound 5]")
0.32
>>> observed_value("COc1ccc2c(c1OC)C(O)CN(c1nc(C)n(Cc3ccc(C(F)(F)F)s3)c(=O)n1)C2 (stereo not shown) [compound 50]")
0.41
>>> observed_value("Cc1nc(N2Cc3cc4c(cc3C(O)C2)OCO4)nc(=O)n1Cc1ccc(C(F)(F)F)s1 (stereo not shown) [compound 54]")
0.042

###

pIC50 for assorted molecules
molecular target: Human T-type calcium channel (Cav 3.2) (Homo sapiens, UniProt O95180); construct: Edward Perez-Reyes, University of Virginia, USA; host or cells: HEK293; experiment: Calcium influx inhibition assay; assay type: cell-based; details: T-type calcium channel inhibition concentration; Cav 3.2 expressing HEK293 cells, FLIPR Calcium 4 fluorescence; read-out: C50
pIC50: −log10 of the molar value.
Parameter Measured: pIC50

>>> observed_value("COc1cccc2c1C(O)CN(c1nc(C)n(Cc3ccc(C(F)(F)F)s3)c(=O)n1)C2 (stereo not shown) [8a]")
7.20
>>> observed_value("CCOc1ccc2c(c1)C(O)CN(c1nc(C)n(Cc3ccc(C(F)(F)F)s3)c(=O)n1)C2 (stereo not shown) [compound 18]")
7.74
>>> observed_value("COc1ccc2c(c1)CCN(c1nc(C)n(Cc3cnc(C(F)(F)F)s3)c(=O)n1)C2 [compound 24]")
6.03
>>> observed_value("Cc1nc(N2Cc3ccc(OCC(F)(F)F)cc3C(O)C2)nc(=O)n1Cc1cnc(C(F)(F)F)s1 (stereo not shown) [compound 23]")
6.47
